Tested on: HepG2 cells
experiment-description: HepG2 cytotoxicity assay
Assay type: cell-based
assay-conditions: mean
Method: After incubation, plates and CellTiter-Glo Reagent (G7571, Promega) were equilibrated at room temperature for 30 min before proceeding to develop the luminescent signal. Using a Multidrop combi dispenser, 25 μl per well of the signal developer were added to the plates and after 10 min at room temperature for stabilization, plates were read on the ViewLux system (Perkin Elmer).
Note to self: values exactly at 3 µM are label 1. So HepG2 cells mean TOX50 at or above 3 µM is label 1, below is label 0.

Form field: HepG2 cells mean TOX50 at least 3 µM? Entry: Cl.c1ccc2c(NCCCCCCCCCNc3ccnc4ccccc34)ccnc2c1
label 0

Answer whether HepG2 cells mean TOX50 of Cc1cc(N)c2cc(NC(=O)c3cc(C(F)(F)F)cc(C(F)(F)F)c3)ccc2n1.Cl is greater than or equal to 3 µM.
label 0

Dear colleague, could you confirm whether CCCCOc1ccc(CNCCCCCCNCc2ccc(OCCCC)c3ccccc23)c2ccccc12.CS(=O)(=O)O has HepG2 cells mean TOX50 at or above 3 µM?
label 0

Determine whether this compound has HepG2 cells mean TOX50 no lower than 3 µM: N=C(NCC1CC1c1ccccc1)c1cccc(C(=N)NCC2CC2c2ccccc2)n1 (stereo not shown)
label 1

Given the entry CCn1c(-c2nonc2N)nc2c(-c3cccc(NC(=O)Nc4ccc5c(c4)CCC5)c3)ncc(OCCCN)c21.O=C(O)C(F)(F)F , answer whether its HepG2 cells mean TOX50 meets or surpasses 3 µM.
label 1

Please check the record CN1CCN(CCCN(Cc2cccc(-c3ccc(CNC4CCCC4)cc3)c2)C(=O)/C=C/c2ccccc2)CC1.O=C(O)C(F)(F)F and state if its HepG2 cells mean TOX50 is at or above 3 µM.
label 1

Dear colleague, could you confirm whether COc1c(CCNCCCCNCCc2cc(Cl)c3ccccc3c2OC)cc(Cl)c2ccccc12.CS(=O)(=O)O has HepG2 cells mean TOX50 at or above 3 µM?
label 0

---

Test system: P. falciparum stage V female gametocytes
experiment-description: P. falciparum female gametocyte activation assay (Pf FGAA), 24 h or 48 h preincubation, Pfs25 expression readout
Type: cell-based, Plasmodium falciparum NF54
assay-conditions: P. falciparum female gametocytes; mean; read-out: Gametocytes mean Pf FGAA IC50
Record form. Attribute: pIC50. Fill in for each entry.
Scale for pIC50: -log10 of concentration given in mol/L; no unit attached.

Provide one value: measured pIC50 of OC1CCN(c2cc(-c3ccccn3)nc(-c3ccccn3)n2)CC1
5.81

Assign pIC50 to the following record: c1ccc(CNc2cc(-c3ccccn3)nc(-c3ccccn3)n2)cc1
6.49

Please indicate pIC50 recorded for c1ccc(-c2csc(Nc3nc4cc5c(cc4s3)OCO5)n2)nc1
7.49

Return reported pIC50. Input compound: Fc1ccc(OC2CN(c3nccc(NCc4ccccc4Cl)n3)C2)cc1
5.28

Specify measured pIC50 for Nc1c(Cl)cc(C(O)CNCCCCCOCCCc2ccc(O)c3ncccc23)cc1Cl.O=C(O)/C=C/C(=O)O (stereo not shown) .
5.68

// fetch pIC50 given entry N=C(/N=C(/NCCCCCCN/C(=N\C(=N)Nc1ccc(Cl)cc1)N1CCCCC1)N1CCCCC1)Nc1ccc(Cl)cc1
5.10

Retrieve pIC50 measured for O=C(O)C(F)(F)F.O=S(=O)(NCCN1CCCC1)c1ccc(-c2cccc(CNC3Cc4ccccc4C3)c2)cc1 and print it.
5.60

Input CC(C)c1ccc(CN2CCC(CNC(=O)c3cc(-c4ccccc4F)cs3)C2)cc1.O=C(O)C(F)(F)F (stereo not shown) , output reported pIC50.
5.97

For the compound FC(F)(F)c1ccc2[nH]c(-c3ccc(-c4ccc(CNCCN5CCNCC5)cc4)s3)nc2c1.O=C(O)C(F)(F)F , report pIC50.
5.52

Give the reported pIC50 for this compound. O=C(NCC1CCN(Cc2cccc(C(F)(F)F)c2)C1)c1cc(-c2cccc(C(F)(F)F)c2)cs1.O=C(O)C(F)(F)F (stereo not shown)
5.78

Provide only the value of recorded pIC50 for Cc1cccc(Nc2nc(N[C@@H]3CCCNC3)nc3cc[nH]c(=O)c23)c1.O=C(O)C(F)(F)F
5.73

Report pIC50 for COc1ccc(CCNCCCCCCNCCc2ccc(Cl)cc2)c(Cl)c1OC.Cl
6.08

Give a short answer stating reported pIC50 for Cc1ccc(C(C(=O)Nc2ccc(N3CCNCC3)c(Cl)c2)c2ccccc2)cc1 (stereo not shown) .
6.18

Given the compound COc1ccc(-c2cnc3[nH]cc(-c4ccncc4)c3c2)cc1OC , write its reported pIC50.
5.65

Give recorded pIC50. COc1ccc(CNC2Cc3ccccc3C2)cc1-c1ccc(OC)c(S(=O)(=O)NCCN2CCCC2)c1.O=C(O)C(F)(F)F
5.57

Output pIC50 of Cc1cccc2nc(-c3ccc(-c4ccc(CNCc5ccc(CN)cc5)cc4)cc3)[nH]c12.O=C(O)C(F)(F)F
5.67

Tell me its pIC50 given O=C(Nc1cccc(-c2cccc(-c3nc4cc(C(F)(F)F)ccc4[nH]3)c2)c1)Nc1ccc(F)c(F)c1F as the entry.
5.85

Please list pIC50 recorded for the compound CN1CCCC(CN2CCN(Cc3cccc(-c4ccc(-c5nc6cc(C(F)(F)F)ccc6[nH]5)cc4)c3)CC2)C1.O=C(O)C(F)(F)F (stereo not shown)
5.89

Specify reported pIC50 for the compound shown: CCc1c(CCNCCCCCCNC(C)(C)Cc2ccc3c(c2CC)OCO3)ccc(OC)c1OC.Cl
5.91

Quick one: give measured pIC50 for Fc1ccc2[nH]c(-c3ccc(-c4ccc(CN5CCC(CCN6CCCCC6)CC5)cc4)cc3)nc2c1.O=C(O)C(F)(F)F
5.77

Give recorded pIC50. Fc1ccc(NC(S)=NN=Cc2ccccn2)cc1
7.57

Answer with reported pIC50 of CCCc1cc(=O)[nH]c(-n2nc(C)cc2NC(=O)CC(c2ccccc2)c2ccccc2)n1
5.89

Dear colleague, please send me the reported pIC50 for O=C(O)C(F)(F)F.O=S(=O)(NCCN1CCCC1)c1ccc(-c2ccc(CNC3Cc4ccccc4C3)cc2)s1 when you can.
5.64

Identify measured pIC50 associated with CC(C)N1CCN(C(CN2CCN(CCCOc3ccccc3-c3ccccc3)CC2)c2ccc(F)cc2)CC1.Cl (stereo not shown)
5.85

Give pIC50 for the following compound: CC(C)(C)c1cc(NC2CC2)nc(-c2ccccn2)n1
6.92

Determine from records and report pIC50 for COc1ccc(-c2csc3ncnc(Cl)c23)cc1
5.84

Tell us which pIC50 value is on record for FC(F)(F)c1ccc2[nH]c(-c3ccc(-c4cccc(CNCCN5CCNCC5)c4)cc3)nc2c1.O=C(O)C(F)(F)F
5.77

Identify measured pIC50 corresponding to CC(C)(C)c1ccc(CN2CCC(CNC(=O)c3cc(-c4cccc(C(F)(F)F)c4)cs3)C2)cc1.O=C(O)C(F)(F)F (stereo not shown)
6.02

Consider the compound Cc1c2ccncc2c(C)c2c1[nH]c1cc(Cc3ccccc3)c(O)cc12 . State its measured pIC50.
5.96

# return recorded pIC50 for entry COc1ccc(CNC2Cc3ccccc3C2)cc1-c1ccc(S(=O)(=O)NCCN2CCCC2)s1.O=C(O)C(F)(F)F
5.86

Return value of pIC50 for input SC(=Nc1ccc(Cl)c(Cl)c1)NN=Cc1ccccn1 , no commentary.
7.10

---

Tested on: HepG2 cells
experiment-description: HepG2 cytotoxicity assay
Type: cell-based
assay-conditions: HepG2 cells; mean
Description: After incubation, plates and CellTiter-Glo Reagent (G7571, Promega) were equilibrated at room temperature for 30 min before proceeding to develop the luminescent signal. Using a Multidrop combi dispenser, 25 μl per well of the signal developer were added to the plates and after 10 min at room temperature for stabilization, plates were read on the ViewLux system (Perkin Elmer).
measurement-kind: HepG2 cells mean TOX50 (µM)
Lab book: enter the figure in µM, no units written.

For HepG2 cells, give HepG2 cells mean TOX50 of the listed compound: COc1cccc(OC)c1CN1CCC(N(C)CCCCCCCCN2CCC(OC(=O)Nc3ccccc3-c3ccccc3)CC2)CC1 [TCMDC-134684]
1.93

GET HepG2 cells mean TOX50 | system: HepG2 cells | item: CCn1c(Sc2ccc([N+](=O)[O-])c(C#N)c2)nnc1-c1cccc(Cl)c1 [TCMDC-135234]
18.80

Jot down HepG2 cells mean TOX50 (HepG2 cells) of COc1ccc(CCNCCCCCCNCCc2ccc(Cl)c3ccccc23)cc1OC.Cl [TCMDC-131270] .
2.12

Under HepG2 cells: report HepG2 cells mean TOX50 of CCCC(N)C(=O)NC1CCN(c2c(F)c(N)c3c(=O)c(C(=O)O)cn4c3c2Oc2ccccc2-4)C1.Cl (stereo not shown) [TCMDC-125701] .
1.61

Report value: HepG2 cells mean TOX50, system: HepG2 cells, compound: O=C(Nc1nc(-c2ccccn2)cs1)c1ccc(Br)s1 [TCMDC-123868]
37.44

Fill in: HepG2 cells mean TOX50 on HepG2 cells, entry CC(C)(C)OC(=O)NCc1ccc(Nc2nnc(-c3cccc(C(=O)NCc4cc(C(F)(F)F)cc(C(F)(F)F)c4)c3)o2)cc1 [TCMDC-135229]
21.43

Enter measured HepG2 cells mean TOX50, system HepG2 cells, for the compound shown: CNCCNCc1ccc(-c2ccc(-c3nc4cc(C(F)(F)F)ccc4[nH]3)s2)cc1.O=C(O)C(F)(F)F [TCMDC-132838]
6.10

Answer with HepG2 cells mean TOX50 of NCCCNc1nc(Nc2ccc(C(F)(F)F)cc2F)c2c(=O)[nH]ccc2n1.O=C(O)C(F)(F)F [TCMDC-135056] measured for HepG2 cells.
9.30

System HepG2 cells. Read-out HepG2 cells mean TOX50. Item CC[C@H]1CN2CCc3cc(OC)c(OC)cc3[C@@H]2C[C@@H]1C[C@H]1NCCc2cc(OC)c(OC)cc21 [TCMDC-125531] . Report value.
9.77

Report HepG2 cells mean TOX50 from HepG2 cells testing of CCN(CC)CCCn1c(N)c(-c2nc3ccccc3[nH]2)c2nc(C#N)c(C#N)nc21 [TCMDC-123680]
4.27

State, for HepG2 cells, measured HepG2 cells mean TOX50 of the compound listed here: Cc1c(Cl)cccc1S(=O)(=O)Nc1ccc(CCN2CCC(N)CC2)cc1.Cl [TCMDC-134083]
13.86

For HepG2 cells, give HepG2 cells mean TOX50 of the listed compound: COc1ccc(CNC2Cc3ccccc3C2)cc1-c1ccc(S(=O)(=O)NCCN2CCCC2)c(F)c1.O=C(O)C(F)(F)F [TCMDC-132266]
6.03

For HepG2 cells, give the measured HepG2 cells mean TOX50 of the entry Cc1ccc(C)c2sc(N3CCN(C(=O)c4ccc([N+](=O)[O-])o4)CC3)nc12 [TCMDC-124315]
37.65

Give HepG2 cells mean TOX50 for Cc1ccccc1OCC(O)CNC1CCC(NCC(O)COc2ccccc2C)CC1 (stereo not shown) [TCMDC-125142] tested on HepG2 cells.
4.07

Return reported HepG2 cells mean TOX50 for target or system HepG2 cells, item CCN(CC)/C(=N/C(=N)NCc1ccc(Cl)cc1Cl)NCCCCCCN/C(=N\C(=N)NCc1ccc(Cl)cc1Cl)N(CC)CC [TCMDC-131819] .
36.73

Look up HepG2 cells data: HepG2 cells mean TOX50 of CCCC(=O)NC(c1ccc(C)cc1)c1ccc2cccnc2c1O (stereo not shown) [TCMDC-123605] , then report it.
9.22
